Below, each entry is listed with its recorded viability, T/C.
# System: KRAS patient-derived spheroids with HUVEC/MSC, viability;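 also: compound exposure lasted seven days before readout; 100% = DMSO vehicle control viability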
# method_description: Anticancer human tumor 519858-162-T-J1-PDC patient-derived colon adenocarcinoma cell line growth inhibition [KRAS2]
# condition_label: second compound 0.1 µM; first compound 1 µM; active compounds read low

Use the examples below as a reference point.
compound	viability, T/C
O=C(c1cc(Cc2n[nH]c(=O)c3ccccc23)ccc1F)N1CCN(C(=O)C2CC2)CC1 + CNCc1ccccc1-c1csc(C(C)Nc2nc(C)nc3cc(OC)c(OC)cc23)c1	82.6%
CC(C)NCC(C(=O)N1CCN(c2ncnc3c2C(C)CC3O)CC1)c1ccc(Cl)cc1 (stereo not given) + CNCc1ccccc1-c1csc(C(C)Nc2nc(C)nc3cc(OC)c(OC)cc23)c1	93.7%
O=C(c1cc(Cc2n[nH]c(=O)c3ccccc23)ccc1F)N1CCN(C(=O)C2CC2)CC1 + CC1OCC2(CCN(c3cnc(Sc4ccnc(N)c4Cl)c(N)n3)CC2)C1N	87.1%
CC(=O)OC12COC1CC(O)C1(C)C(=O)C(O)C3=C(C)C(OC(=O)C(O)C(NC(=O)OC(C)(C)C)c4ccccc4)CC(O)(C(OC(=O)c4ccccc4)C21)C3(C)C (stereo not given) + C=CC(=O)N1CCN(c2nc(=O)n(-c3c(C)ccnc3C(C)C)c3nc(-c4c(O)cccc4F)c(F)cc23)C(C)C1	72.3%
COC(=O)c1ccc2c(C(=Nc3ccc(N(C)C(=O)CN4CCN(C)CC4)cc3)c3ccccc3)c(O)[nH]c2c1 + CC1OCC2(CCN(c3cnc(Sc4ccnc(N)c4Cl)c(N)n3)CC2)C1N	66%
Cn1nccc1Nc1nccc(-c2cc3c(s2)C(C)(C)N(CCN2CCOCC2)C3=O)n1 + CNCc1ccccc1-c1csc(C(C)Nc2nc(C)nc3cc(OC)c(OC)cc23)c1	63%

In plain terms, Cn1nccc1Nc1nccc(-c2cc3c(s2)C(C)(C)N(CCN2CCOCC2)C3=O)n1 + C=CC(=O)N1CCN(c2nc(=O)n(-c3c(C)ccnc3C(C)C)c3nc(-c4c(O)cccc4F)c(F)cc23)C(C)C1 has a documented viability, T/C of 83.5%

In plain terms, COc1cc2nccc(Oc3ccc(NC(=O)C4(C(=O)Nc5ccc(F)cc5)CC4)cc3)c2cc1OC + CNCc1ccccc1-c1csc(C(C)Nc2nc(C)nc3cc(OC)c(OC)cc23)c1 has a documented viability, T/C of 94%

In plain terms, COc1cc(Nc2ncc3c(n2)-c2ccc(Cl)cc2C(c2c(F)cccc2OC)=NC3)ccc1C(=O)O + C=CC(=O)N1CCN(c2nc(OCC3CCCN3C)nc3c2CCN(c2cccc4cccc(C)c24)C3)CC1CC#N has a documented viability, T/C of 78.8%

In plain terms, CC(C)NCC(C(=O)N1CCN(c2ncnc3c2C(C)CC3O)CC1)c1ccc(Cl)cc1 (stereo not given) + C=CC(=O)N1CCN(c2nc(=O)n(-c3c(C)ccnc3C(C)C)c3nc(-c4c(O)cccc4F)c(F)cc23)C(C)C1 has a documented viability, T/C of 69%

In plain terms, CC(=O)OC12COC1CC(O)C1(C)C(=O)C(O)C3=C(C)C(OC(=O)C(O)C(NC(=O)OC(C)(C)C)c4ccccc4)CC(O)(C(OC(=O)c4ccccc4)C21)C3(C)C (stereo not given) + CC1OCC2(CCN(c3cnc(Sc4ccnc(N)c4Cl)c(N)n3)CC2)C1N has a documented viability, T/C of 79.5%

In plain terms, Cn1nccc1Nc1nccc(-c2cc3c(s2)C(C)(C)N(CCN2CCOCC2)C3=O)n1 + C=CC(=O)N1CCN(c2nc(OCC3CCCN3C)nc3c2CCN(c2cccc4cccc(C)c24)C3)CC1CC#N has a documented viability, T/C of 60.1%

From: PubChem BioAssay AID1963872
